# Tested on: HS 578T breast
# method_summary: NCI-60 one-dose screen, 48 h
# experimental_setup: 10 µM unless noted
About 83,000 compounds went through this panel and 20% of them were active in at least one assay; those are over-represented in the sample as a whole. Calls of active or inactive are those of the source. The calls were made as follows: active = growth percent below 10; inactive = the rest.
Reply using exactly one outcome from TRUE (active), FALSE (inactive)

record_smiles	system_name	assigned_class
O=[N+]([O-])c1ccc(OCc2ccc(S(=O)(=O)F)c(Cl)c2)c(Cl)c1	HS 578T breast	FALSE

[ask] Hi, do you know how C=CC[PH+](c1ccccc1)c1ccccc1.C=CC[PH+](c1ccccc1)c1ccccc1.[Pt+2].[S-]c1nc2ccccc2[nH]1.[S-]c1nc2ccccc2[nH]1 came out in this test?
[reply] TRUE

[ask] Repeat for the following molecule: Nc1c(Cl)c(Cl)nc(C(=O)O)c1Cl
[reply] FALSE

----------
# Test system: HCT-116 colon
# method_summary: NCI-60 one-dose screen, 48 h (100 = growth as untreated, 0 = no growth, -100 = all killed)
# experimental_setup: 10 µM unless noted
Compounds without any hit were thinned out: in the full panel of roughly 83,000, 20% have a hit.
Recorded growth for the following compounds
Give the value, in units of %, as a plain number.

Solved cases (3 shown):
compound	growth (%)
CC1=CC(=O)CCC12CCOC2=O (centres undefined)	102
C=C[Se]CC(=O)/C=C/c1ccccc1	56.1
COc1ccc(O)c2c(=O)c3c(OC)cc4c(c3oc12)[C@@H]1C=CO[C@@H]1O4	52.2

[ask] // returns reported growth for input CCOP(=O)(NC)OCC
[reply] 92.1

[ask] How about this compound: Nc1nc(=S)nc(N)[nH]1
[reply] 89.1

----------
# System: DU-145 prostate
# method_summary: NCI-60 one-dose screen, 48 h
# experimental_setup: 10 µM unless noted
The panel holds about 83,000 compounds, 20% with a hit somewhere; the sample as a whole holds those more often. Active and inactive are the calls of the source. How the source made its calls: active means growth percent below 10; inactive means the rest.
Respond only with the outcome that fits, drawn from class 1 (active), class 0 (inactive)

Study these solved cases before continuing.
molecule	assigned_class
COc1ccc2c(c1)C1(C)CCN(C)CC(C1)C2O (stereo not drawn)	class 0
C[C@]12CCC3[C@@H](C[C@@H]4SC(Nc5ccccc5)=N[C@@]45CC(=O)CC[C@]35C)[C@@H]1CCC2=O (stereo partly drawn)	class 1
CNC(=O)Oc1ccc(Cl)cc1SSc1cc(Cl)ccc1OC(=O)NC	class 0
C=CC1CN2CCC1CC2C(O)c1ccnc2ccccc12 (stereo not drawn)	class 0
C#COc1cccc(Nc2ncnc3cc(NC(=O)CF)ccc23)c1	class 0
O=c1c2ccccc2nc(-c2ccccc2Cl)n1-c1nnc(C(F)(F)F)s1	class 0
O=C1CN2CCC1CC2	class 0

[ask] Could you check what this test reported for S=P(SP(=S)(c1ccccc1)c1ccccc1)(c1ccccc1)c1ccccc1 ?
[reply] class 0

----------
Quick reference for growth among some molecules
# System: MALME-3M melanoma
# method_summary: NCI-60 one-dose screen, 48 h (100 = growth as untreated, 0 = no growth, -100 = all killed)
# experimental_setup: 10 µM unless noted
Compounds without any hit were thinned out: in the full panel of roughly 83,000, 20% have a hit.
Please state the figure in %; there is no need to write the unit.

Below, 2 molecules whose answers are already recorded.
record_smiles	measure_unit	growth
C[C@]12CC[C@@H](OC(=O)N(CCCl)N=O)C[C@@H]1CC[C@@H]1[C@@H]2CC[C@]2(C)C(=O)CC[C@@H]12	%	108
CN1CCN(c2ccc(Cl)cc2)CC1	%	126

Continue with the molecule presented below.
[ask] Record request: growth value, item O=Cc1cn(Cc2ccccc2)c2ccccc12
[reply] 127

----------
# Test system: MDA-MB-435 melanoma
# method_summary: NCI-60 one-dose screen, 48 h
# experimental_setup: 10 µM unless noted
# Method: Growth inhibition of the MDA-MB-435 human Melanoma tumor cell line is measured as a screen for anti-cancer activity. Cells are grown in 96 well plates and exposed to the test compound for 48 hours. Compounds are tested at a single concentration, which is 10^-5 M for most compounds. The reported endpoint is percent growth (GI% or GIPRCNT), where numbers from 0 - 100% represent growth inhibition, and numbers from -100% - 0 represent cell death. […]
About 83,000 compounds went through this panel and 20% of them were active in at least one assay; those are over-represented in the sample as a whole. Active and inactive are the calls of the source. Rule for the calls: active = growth percent below 10; inactive = the rest.
The reply should be one of these categories: active, inactive

Example entries begin here.
compound	assigned_class
O=S(OO)c1cc(Cl)c(O)c(Cl)c1 (configuration not stated)	inactive
O=C1CN2CCC1CC2	inactive
CC(=O)c1cccc(S(=O)(=O)F)c1	inactive

Continue with the compound presented below.
[ask] What was the test verdict on C#Cc1cccc(Nc2nc(Cl)nc3cc(NC(=O)CF)ccc23)c1 ?
[reply] active

----------
# Tested on: SR leukemia
# method_summary: NCI-60 one-dose screen, 48 h (100 = growth as untreated, 0 = no growth, -100 = all killed)
# experimental_setup: 10 µM unless noted
This is part of a sample that, as a whole, favours compounds with a hit. Of some 83,000 tested, about 20% had one in any assay.
result_type: growth (%)
Give the quantity in %, number only.

Sample records with growth:
molecule	growth, %
Cc1cc(N)ccc1N	110
CC1(C)N=C(N)N=C(N)N1c1ccc(CCC(=O)Nc2ccc(S(=O)(=O)F)cc2)cc1	15.7
O=[N+]([O-])c1ccc(OCc2ccc(S(=O)(=O)F)c(Cl)c2)c(Cl)c1	87.5
ClCc1ccc(Cl)c(Cl)c1	101
N#CCc1ccc(CC#N)cc1	97.9
O=S(OO)c1cc(Cl)c(O)c(Cl)c1 (stereo not drawn)	95.1

Let us move to another entry and its growth.
[ask] GET /values?readout=growth&item= CC[C@@H](C)C(=O)O[C@H]1[C@H](O)[C@H]2[C@@H](CN3C[C@@H](C)CC[C@H]3[C@@]2(C)O)[C@@H]2C[C@]34O[C@]5(O)[C@@H](OC(=O)[C@@](C)(O)CC)CC[C@@]3(C)[C@@H]5[C@@H](OC(C)=O)[C@@H](OC(C)=O)[C@H]4[C@@]21O
[reply] 100

----------
# Tested on: MOLT-4 leukemia
# method_summary: NCI-60 one-dose screen, 48 h (100 = growth as untreated, 0 = no growth, -100 = all killed)
# experimental_setup: 10 µM unless noted
The panel holds about 83,000 compounds, 20% with a hit somewhere; the sample as a whole holds those more often.
result_type: growth (%)
Report as a plain number; the unit % is understood.

Would you please look over these solved cases?
compound	system_name	reported_result
CN1C2CCC1[C@@H](COC(=O)c1ccccc1)[C@@H](O)C2 (stereo not given in full)	MOLT-4 leukemia	97.8
CNC(=O)CCl	MOLT-4 leukemia	118

[ask] What does the record list as growth for CC1(C)CN=C(NN=C(/C=C/c2ccc(C(F)(F)F)cc2)/C=C/c2ccc(C(F)(F)F)cc2)NC1 ?
[reply] -59.1

[ask] Subsequent entry: COc1ccc2c(c1)c(-c1nc(-c3cn(C)c4ncccc34)cs1)cn2CCCCN1CCOCC1
[reply] -15.6

[ask] Item: CN(C)c1ccc(C=C2C(=O)NC(=O)NC2=O)cc1
[reply] 98.7

[ask] O=[N+]([O-])c1c(Cl)cc(Cl)c([N+](=O)[O-])c1Cl , same question.
[reply] 80.8

[ask] Can you check O=C(CBr)OCCOC(=O)CBr next?
[reply] 64.1

[ask] Would you kindly repeat that for CC(=O)Cc1ccc2c(c1)OCO2 ?
[reply] 121

[ask] Same question, O=[N+]([O-])c1cc(Br)c(O)c(Br)c1 this time
[reply] 107

[ask] What about OCCN=Cc1c[nH]c2ccccc12 ?
[reply] 101

[ask] Cc1ccc(C(=O)O[C@H](C(=O)O)[C@H](OC(=O)c2ccc(C)cc2)C(=O)O)cc1 , same question.
[reply] 90.9

[ask] Queued: Cc1cc(Br)c([N+](=O)[O-])cc1[N+](=O)[O-]
[reply] 71.1

[ask] Follow-up item: C=CC[PH+](c1ccccc1)c1ccccc1.C=CC[PH+](c1ccccc1)c1ccccc1.[Pt+2].[S-]c1ncccn1.[S-]c1ncccn1
[reply] 7.91

[ask] Queued: C[C@]12CC[C@H]3[C@@H](C[C@@H]4SC(Nc5cccc(F)c5)=N[C@@]45CC(=O)CC[C@]35C)[C@@H]1CCC2=O
[reply] -3.78

[ask] # iterate: C[N+]1(C)CCCC1c1cccnc1 (stereo not given)
[reply] 102

[ask] Another: O=C(Cc1ccccc1)c1ccccc1
[reply] 107

[ask] Please answer likewise for C#Cc1cccc(Nc2nc(Cl)nc3cc(NC(=O)CF)ccc23)c1
[reply] 80

[ask] Also, CO[C@@H]([CH2][Hg][O]C(=O)c1ccccc1)[C@@H]([CH2][Hg][O]C(=O)c1ccccc1)OC please.
[reply] 27.4

[ask] Do the same for C/C=C(/C)C(=O)O[C@H]1CC[C@@]2(C)[C@@H]3CC[C@H]4[C@]5(O)C[C@H](O)[C@@]6(O)[C@@H](CN7C[C@@H](C)CC[C@H]7[C@@]6(C)O)[C@]5(O)C[C@@]42O[C@@]13O please
[reply] 112
